test system: HCT-116 colon; assay: NCI tumour cell line growth inhibition, 48 h
Readout Kind: TGI

INSERT INTO measurements (molecule, tested_target, result) VALUES
  ('CC(C)C(N=c1c2ccccc2n(O)c2ccccc12)C(=O)O (stereo not drawn)', 'HCT-116 colon', '> 100 µM'),
  ('N#Cc1c(N2CCCC2)ncn(-c2ccccc2)c1=S', 'HCT-116 colon', '> 100 µM'),
  ('COC(=O)[C@@]12C(=O)CCC(=O)C1C1C(=CC2C)O[C@@H]2OC3(CCCCC3)O[C@H]12 (stereo partly drawn)', 'HCT-116 colon', '> 100 µM'),
  ('N[C@H]1C[C@@H]1c1ccc(-c2cccc(O)c2)cc1', 'HCT-116 colon', '> 100 µM'),
  ('CC(=O)c1c2c(cc3c1CC1(Cc4cc5c(cc4C1)CCCC5)C3)CCCC2', 'HCT-116 colon', '> 100 µM'),
  ('CC(=O)OCc1cnc2c3c(nc4ccccc4c13)C(=O)c1cccnc1-2', 'HCT-116 colon', '0.027 µM'),
  ('Clc1ccc(CNc2ccc3nc(CCC4CCCCC4)[nH]c3c2)cc1', 'HCT-116 colon', '4.96 µM'),
  ('NCCNS(=O)(=O)c1ccc(N)cc1', 'HCT-116 colon', '> 100 µM'),
  ('C/C(=C1\SC(=NCc2cccs2)NC1=O)c1ccc2ncccc2c1', 'HCT-116 colon', '> 25 µM'),
  ('COc1ccc(C(=O)O)c(Br)c1OCc1ccccc1', 'HCT-116 colon', '> 100 µM'),
  ('C[C@]12CCC3c4ccc(O)cc4CC[C@H]3C1CC(=O)NC2=O (stereo partly drawn)', 'HCT-116 colon', '> 10 µM'),
  ('COc1c2c(cc3occ(-c4ccc(CC=C(C)C)cc4)c(=O)c13)OC(C)(C)C=C2', 'HCT-116 colon', '> 100 µM'),
  ('CSc1nc(N)cc(Oc2ccc(-c3nc(Nc4cccc(C(F)(F)F)c4)n[nH]3)cc2)n1', 'HCT-116 colon', '2.15 µM');

* * *

tested on: OVCAR-8 ovarian; assay: NCI tumour cell line growth inhibition, 48 h
Readout Kind: TGI

INSERT INTO assay_data (compound, result) VALUES
  ('COc1cc(/C=C2\C[C@H]3[C@@H]4CC=C5C[C@@H](OC(C)=O)CC[C@]5(C)[C@H]4CC[C@]3(C)\C2=N\O)cc(OC)c1OC', '> 100 µM'),
  ('CN=c1ss/c(=N\C(=S)N(C)C)n1-c1ccccc1', '> 100 µM'),
  ('CC(C)/C=N\N1C(N)=C(C#N)C(C#N)(C#N)C1C(C)C (stereo not drawn)', '58.1 µM'),
  ('COc1cc(C2S/C(=C/c3ccccc3)C(=O)N2c2cccc(Cl)c2)cc(OC)c1OC (stereo not drawn)', '> 100 µM'),
  ('CCCCCCCCCC(CCCC(O)CC(=O)O)OC1OC(COC2OC(C)C(O)C(O)C2O)C(O)C(O)C1OC1OC(CO)C(O)C(O)C1OC1OC(C)C(OC(=O)CC(C)C)C(O)C1O (stereo not drawn)', '> 60 µM'),
  ('O=C(/C=C/c1cccs1)c1ccc(Cl)cc1Cl', '48.3 µM'),
  ('COc1ccccc1-c1cc(=O)c2c(C)ccnc2[nH]1', '> 100 µM'),
  ('O=C(O)COc1ccc(C(=O)/C(SS/C(C(=O)c2ccc(OCC(=O)O)c(Cl)c2Cl)=C2\C=C(c3ccc(F)cc3)SS2)=C2/C=C(c3ccc(F)cc3)SS2)c(Cl)c1Cl', '55.8 µM');

* * *

Listing: TGI of selected compounds
tested on: T-47D breast; test: NCI tumour cell line growth inhibition, 48 h
Readout Kind: TGI

INSERT INTO assay_data (compound, readout_kind, result) VALUES
  ('CC(=O)N1C(Nc2ccccc2)CCN1c1ccccc1 (stereo not drawn)', 'TGI', '> 10 µM'),
  ('CS(=O)(=O)CCN(CC#N)Cc1ccc(-c2ccc3ncnc(Nc4ccc(OCc5cccc(F)c5)c(Cl)c4)c3c2)o1', 'TGI', '> 23.7 µM'),
  ('Cc1ccc(NC(=O)c2cc(S(=O)(=O)Nc3n[nH]c(=O)n3-c3ccccc3)c(S)cc2Cl)cc1', 'TGI', '> 100 µM');

* * *

system: SK-OV-3 ovarian; assay: NCI tumour cell line growth inhibition, 48 h
Listing: TGI of selected molecules
Readout Kind: TGI

INSERT INTO assay_data (molecule, readout_kind, result) VALUES
  ('O=C(N=Nc1c(O)[nH]c2ccccc12)C(O)(c1ccccc1)c1ccccc1', 'TGI', '56.6 µM'),
  ('CCOc1ccccc1N1C(=O)C(=O)C(c2nc3ccccc3s2)C(=O)C1=O', 'TGI', '> 100 µM'),
  ('NCCNS(=O)(=O)c1ccc(N)cc1', 'TGI', '> 100 µM'),
  ('CC1(C(=O)Nc2ccc3cc4ccccc4cc3c2)CC2(C)CC(C)(C1)C(O)NC2=O (stereo not given)', 'TGI', '> 100 µM'),
  ('COc1c2c(cc3occ(-c4ccc(CC=C(C)C)cc4)c(=O)c13)OC(C)(C)C=C2', 'TGI', '> 100 µM');

* * *

Listing: TGI of selected compounds
system: PC-3 prostate; assay: NCI tumour cell line growth inhibition, 48 h
Readout Kind: TGI

INSERT INTO results (compound, readout_kind, result) VALUES
  ('COc1cccc(CC2C(=O)N=C(NC(C)=O)N2C)c1OC(C)=O (centres undefined)', 'TGI', '> 100 µM'),
  ('C/C(=C1\SC(=NCc2cccs2)NC1=O)c1ccc2ncccc2c1', 'TGI', '> 25 µM'),
  ('N#Cc1c(-c2ccc(Cl)cc2)cc(-c2ccc(Nc3ccnc4cc(Cl)ccc34)cc2)nc1N', 'TGI', '> 100 µM'),
  ('COC(=O)c1cc(C)n(CN(Cn2nc(C(=O)OC)cc2C)c2ccccc2)n1', 'TGI', '> 100 µM');

* * *

Listing: TGI of selected molecules
system: MOLT-4 leukemia; assay: NCI tumour cell line growth inhibition, 48 h
Readout Kind: TGI

INSERT INTO assay_data (molecule, result) VALUES
  ('C=C1CCC(OC(C)=O)C2(C)C(OC(C)=O)CC3OC3(C)C2C(OC(C)=O)C2C(C)C(=O)OC2C1Cl (configuration not stated)', '> 100 µM'),
  ('CSC(SC)=C(C#N)C(=O)Nc1ccc(C)cc1', '> 100 µM'),
  ('CCn1c(-c2nonc2N)nc2c(C#CC(C)(C)O)nc(CN3CCCC3)cc21', '> 25 µM'),
  ('C=CCN1C(N)=C(C#N)C(C#N)(C#N)C1CCC (configuration not stated)', '> 100 µM'),
  ('CN(C)c1nc(N)nc(CCl)n1', '> 100 µM'),
  ('COc1ccc(C2C(C#N)=C(N)Oc3c2sc2c(F)cccc32)cc1 (configuration not stated)', '14 µM'),
  ('O=C(O)COc1ccc(C(=O)/C(SS/C(C(=O)c2ccc(OCC(=O)O)c(Cl)c2Cl)=C2\C=C(c3ccc(F)cc3)SS2)=C2/C=C(c3ccc(F)cc3)SS2)c(Cl)c1Cl', '31.2 µM'),
  ('CCNCC(O)COc1ccc2c(c1)[n+]([O-])nc(N)[n+]2[O-] (configuration not stated)', '56 µM'),
  ('CCCCCCN1C(=O)CC(=O)N(CCCCCC)S1(=O)=O', '51.6 µM'),
  ('CC(C)(C)OC(=O)N1CC(O)O[C@H](c2ccccc2)[C@@H]1c1ccccc1 (some centres not stated)', '97.5 µM'),
  ('COc1ccn(CC(=O)c2cc3ccccc3[nH]2)c(=O)n1', '> 100 µM'),
  ('Cc1cc2c(c3c1c1ccccc1n3C)C(=O)c1ccccc1C2=O', '> 100 µM'),
  ('COc1ccc2cc(C(=O)CCC(=O)O)ccc2c1', '> 100 µM'),
  ('O=C(NC/C(Cl)=C/Cl)Nc1c2ccccc2nc2ccccc12', '> 100 µM'),
  ('COc1cc(C2S/C(=C/c3ccccc3)C(=O)N2c2cccc(Cl)c2)cc(OC)c1OC (configuration not stated)', '> 100 µM'),
  ('COc1cc(-c2cc(/C=C3\C(=O)Nc4cc(Cl)ccc43)[nH]n2)cc(OC)c1OC', '6.43 µM'),
  ('CC(C)(C)OC(=O)NC(Cc1ccc(OCc2ccccc2)cn1)C(=O)N1CCCC1 (configuration not stated)', '> 100 µM'),
  ('CC(=O)c1c2c(cc3c1CC1(Cc4cc5c(cc4C1)CCCC5)C3)CCCC2', '38.5 µM'),
  ('Cc1cc(C)nc(Sc2c([N+](=O)[O-])ncn2C)n1', '> 100 µM'),
  ('C=CCN1CN(C2CCCCC2)CSC1=S', '> 22.5 µM'),
  ('COc1cccc(/C=C(\NC(C)=O)c2nc3ccc(Cl)cc3[nH]2)c1', '> 100 µM'),
  ('CC1=CC(O)(c2ccccc2)C(N2CCOCC2)N1O (configuration not stated)', '> 100 µM');
